assay.target: T1, human Claudin18.2 (CLDN18.2), full length, on cells (human)
T1 construct: also called CLDN18.2-FL; HEK293-CLDN18.2 cells
method.description: cellular ELISA, hybridoma supernatant on fixed HEK293-CLDN18.2 cells
observation.type: OD450 (OD)
API: value field is a number in OD; no unit string.

Prompt: So what's the measured OD450 for this one? B4B10G3 (antibody, V domains shown, Hybridoma supernatant antibody; murine IgG2b, kappa; also called subclone B4B10G3) VH: QIQLVQSGPELKKPGETVKISCKASGYTFTNYGMNWVKQAPGKGLKWMGWINTYTGEPTYADDFKGRFAFSLETSASTAYLQINNLKNEDMATYFCARDGQLGLRFAYWGQGTLVTVSA VL: NIMMTQSPSSLAVSAGEKVTMSCKSSQSVLYSSNQKNYLAWYQQKPGQSPKLLIYWASTRESGVPDRFTGSGSGTDFTLTISSVQAEDLAVYYCHQYLSSRTFGGGTKLEIK
Completion: 0.343
